B1: RAD54B (parent)
chain: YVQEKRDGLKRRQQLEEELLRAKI

variants of: B1; test: protein stability index of a GFP-peptide fusion (GPS, HEK-293T) (PSI 1-6); higher = more stable; details: c terminus: a fixed tail appended;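 also: lentivirally expressed fusions sorted by FACS into six bins by GFP to DsRed ratio, PSI derived from sequencing read proportions per bin multiplied by bin number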
QUANTITY MEASURED: protein stability index
One number for each entry.

[
  {
    "SEQUENCE CHANGE": "K23M",
    "protein stability index": 2.62
  },
  {
    "SEQUENCE CHANGE": "Q14F",
    "protein stability index": 2.12
  },
  {
    "SEQUENCE CHANGE": "E17L",
    "protein stability index": 2.19
  },
  {
    "SEQUENCE CHANGE": "I24P",
    "protein stability index": 2.45
  },
  {
    "SEQUENCE CHANGE": "G8I",
    "protein stability index": 1.99
  },
  {
    "SEQUENCE CHANGE": "K10W",
    "protein stability index": 1.47
  },
  {
    "SEQUENCE CHANGE": "D7C",
    "protein stability index": 3.13
  },
  {
    "SEQUENCE CHANGE": "E4N",
    "protein stability index": 1.89
  }
]

// input: 5 variants below; output: protein stability index for each
1. K23V
2. V2N
3. L19W
4. R21K
5. Q3P

OUT:
2.25
3.73
2.17
2.19
2.43

The values you see were collected from the supplement of paper PMC10567573.
